meta.source: patent US6620828B2

# measured target: CDK2/Cyclin A complex (Homo sapiens, UniProt P24941)
# assay notes: CDK2/Cyclin A assay
# Type: biochemical
# test parameters: 1.0 μM; combinatorial library compounds
# Experimental: CDK2/Cyclin A Construct for Assay: CDK2 was purified using published methodology (Rosenblatt et al., J. Mol. Biol., 230, 1317-1319 (1993)) from insect cells that had been infected with a baculovirus expression vector. […] Cyclin-dependent kinase activity was measured by quantifying the enzyme-catalyzed, time-dependent incorporation of radioactive phosphate from [^32P]ATP into a recombinant fragment of the retinoblastoma protein. […]
Use class 1 when the recorded inhibition at 1 µM is no lower than 20%; use class 0 when it is lower.

Textbook exercise: given the entry "CN(C)c1ccc(Nc2nc(N)c(-c3nc(-c4cc(Br)c(Cl)s4)cs3)s2)cc1" , state whether its inhibition at 1 µM is greater than or equal to 20%. class 0

Dear colleague, could you confirm whether "CN(C)c1ccc(Nc2nc(N)c(-c3nc(-c4csc5ccccc45)cs3)s2)cc1" has inhibition at 1 µM at or above 20%? class 1

Is inhibition at 1 µM at least 20%? Consider "CN(C)c1ccc(Nc2nc(N)c(-c3nc(-c4ccc([N+](=O)[O-])cc4)cs3)s2)cc1" class 1

Item Nc1nc(Nc2ccc(S(N)(=O)=O)cc2)sc1-c1nc(-c2ccc(O)cc2)cs1 [drawing 415] with inhibition at 1 µM of 20% or above? class 1

inhibition at 1 µM >= 20% for "CN(C)c1ccc(Nc2nc(N)c(-c3nc(-c4ccc(C#N)cc4)cs3)s2)cc1" ? class 0

* * *

# measured target: CDK2/Cyclin A complex (Homo sapiens, UniProt P24941)
# assay notes: CDK2/Cyclin A assay
# Type: biochemical
# test parameters: 1.0 μM; combinatorial library compounds
I'd appreciate it if you could supply inhibition at 1 µM values for the items below.
Field: numeric (%). Do not append units.

Could you tell me which inhibition at 1 µM is on file for "CC(C)c1ccc(Nc2nc(N)c(-c3nc(-c4cccc(OC(=O)c5ccccc5)c4)cs3)s2)cc1" ? 21.7

Would you mind telling me what inhibition at 1 µM value was observed for Nc1nc(Nc2ccc(S(N)(=O)=O)cc2)sc1-c1nc(-c2ccc(F)cc2)cs1 [drawing 409] ? 74.7

Requested field: inhibition at 1 µM. Item: CN(C)c1ccc(Nc2nc(N)c(-c3nc(-c4ccccc4)cs3)s2)cc1 [drawing 547] 17.2

GET /values?readout=inhibition at 1 µM&item= "Cc1cc(-c2csc(-c3sc(Nc4ccc(S(N)(=O)=O)cc4)nc3N)n2)ccc1Cl" 8.3

I am curious: what inhibition at 1 µM value has been reported for "CN(C)c1ccc(Nc2nc(N)c(-c3nc(-c4ccc(O)c(O)c4)cs3)s2)cc1" ? 16.8

* * *

Assignment: determine reported CHK1^b for the given molecules.
# measured target: FL-CHK1 (Homo sapiens)
# Construct: C-terminally His-tagged full-length human CHK1 (FL-CHK1); 6xHis (C); made in house; host or cells: baculovirus/insect cells
# Sequence (O14757 whole entry): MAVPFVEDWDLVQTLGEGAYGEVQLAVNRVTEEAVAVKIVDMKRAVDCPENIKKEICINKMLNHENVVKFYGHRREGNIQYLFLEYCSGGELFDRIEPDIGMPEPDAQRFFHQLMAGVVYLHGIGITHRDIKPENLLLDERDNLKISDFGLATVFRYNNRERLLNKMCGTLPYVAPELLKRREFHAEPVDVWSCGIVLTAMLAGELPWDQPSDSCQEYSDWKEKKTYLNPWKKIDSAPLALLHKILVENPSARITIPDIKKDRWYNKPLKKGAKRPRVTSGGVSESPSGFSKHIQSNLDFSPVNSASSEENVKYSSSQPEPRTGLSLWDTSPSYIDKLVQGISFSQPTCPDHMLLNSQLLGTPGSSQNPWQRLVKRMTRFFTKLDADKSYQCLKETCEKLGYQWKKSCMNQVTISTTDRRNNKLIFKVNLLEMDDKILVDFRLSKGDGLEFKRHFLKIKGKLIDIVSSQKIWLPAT
# assay notes: CHK1 assay
# Format: biochemical
# Set-up: unit not given here
# test parameters: Table A combinatorial examples; footnote b not given
Form: value (number only, do not type unit).

GET /values?readout=CHK1^b&item= COc1ccc(-c2csc(-c3sc(Nc4cc(OC)c(OC)c(OC)c4)nc3N)n2)cc1 [drawing 362] 29.4

Name the reported CHK1^b value associated with the molecule "COc1cc(Nc2nc(N)c(-c3nc(-c4cc(C)sc4C)cs3)s2)cc(OC)c1OC" 46.3

Entry "COc1ccccc1-c1csc(-c2sc(Nc3cc(OC)c(OC)c(OC)c3)nc2N)n1" : reported CHK1^b = ? 20

Quick one: CHK1^b of "COc1cc(OC)c(-c2csc(-c3sc(Nc4cc(OC)c(OC)c(OC)c4)nc3N)n2)c(O)c1Cl" ? 56

Find the recorded CHK1^b belonging to "COc1cc(Nc2nc(N)c(-c3nc(-c4ccc(C)cc4)cs3)s2)cc(OC)c1OC" and report it. 3.7
